# Test system: SK-MEL-2 melanoma
# assay-comment: NCI tumour cell line growth inhibition, 48 h
property-measured: TGI

The recorded TGI for CC(C)=CCC/C(C)=C/CC/C(=C/COP(=O)(OCc1ccc([N+](=O)[O-])o1)N(C)CCCCCl)C(C)(C)C (stereo not given) is 11.4 µM

Looking up "CCOC(=O)Oc1cc2c(ccn2C)c2c1c1ccccc1n2C(=O)OCC" , I see its TGI listed as > 100 µM

# TGI (molecule: CN=S(=O)(C[C@]1(O)CC2OC1C1OC(C)(C)OC21)c1ccccc1 (stereo not given in full) ) is > 100 µM

Notebook: CC(C)N1CCCOC(c2ccc([N+](=O)[O-])cc2)O1 (stereo not given) , TGI read as > 100 µM

molecule "Cc1ccc(C2=NO[C@@H]3C(=O)N(c4ccc(Cc5ccc(N6C(=O)[C@H]7C(c8ccc(C)cc8)=NO[C@H]7C6=O)cc5)cc4)C(=O)[C@H]23)cc1" , TGI observed: > 100 µM

###

# System: OVCAR-4 ovarian
# assay-comment: NCI tumour cell line growth inhibition, 48 h
Answer each item with its documented TGI.

So, "CCOC(=O)/C=C1\Nc2ccccc2-n2nnnc21" ? Its TGI was > 100 µM

The compound listed as "COc1ccc(F)cc1C(=O)c1cnc(NC2CCN(S(C)(=O)=O)CC2)nc1N" shows TGI equal to > 21.4 µM

Query "O=C(/C=C/c1ccccc1)CCC1C(=O)NC(=O)NC1=O" yields TGI of > 100 µM

Recorded TGI (compound O=C1NC(Cc2c[nH]c3ccccc23)C(=O)N2C(c3ccccc3)c3[nH]c4ccccc4c3C[C@@H]12 (stereo partly specified) ): > 100 µM

Recorded TGI (compound COc1ccc(-c2cc(-c3ccco3)c(C#N)c(=S)n2C2OC(CO)C(O)C(O)C2O)cc1 (stereo unspecified) ): > 100 µM

# TGI of "O=C(NCC#CCO)C(F)(F)F" = > 100 µM

###

# System: LOX IMVI melanoma
# assay-comment: NCI tumour cell line growth inhibition, 48 h; in the data active means GI50 below about 0.43 µM; inactive means the rest
Form entry, call: pick from True (active), False (inactive)

Q: I'd appreciate the recorded outcome for CC(C)=CCC/C(C)=C/CC/C(=C/COP(=O)(OCc1ccc([N+](=O)[O-])o1)N(C)CCCCCl)C(C)(C)C (configuration not stated) from this test.
A: False

Q: So what was the verdict on "C=C[C@]1(C)C=C2C(=O)[C@@]3(O)OC(=O)[C@@]4(CCCC(C)(C)[C@H]34)[C@@]2(O)CC1" in this test?
A: False

Q: Name the outcome recorded for "Clc1ccc(CO/N=C(\Cn2ccnc2)c2ccc(Cl)cc2Cl)c(Cl)c1" in the assay.
A: False

Q: Any idea what this test logged for "O=C1/C(=C/C(Cl)=C/c2ccccc2)SC(=S)N1CCc1ccc(O)cc1" ?
A: False

Q: Assay result, entry [N-]=[N+]=CC(=O)OCC(N)C(=O)O (configuration not stated) — outcome?
A: False

Q: Call for entry CC(=O)OCC1OC(S[As](C)C)C(OC(C)=O)C1OC(C)=O (configuration not stated) :
A: True

Q: Look up the recorded call for "COc1ccc(-c2nc(-c3nc4cc(C)c(C)cc4[nH]3)cc3c2[nH]c2ccccc23)cc1" in this test.
A: False

###

# Tested on: SF-539 CNS
# assay-comment: NCI tumour cell line growth inhibition, 48 h
property-measured: TGI

Result for "Nc1c(Cl)c([N+](=O)[O-])cc2c1OCCCCO2" , tested on SF-539 CNS, TGI: > 100 µM

Value sought: TGI, system SF-539 CNS, item COc1c(O)cc2c(c1O)C1O[C@H](CO)C(O)[C@H](O)[C@H]1OC2=O (some centres not stated) . Result: > 100 µM

Field TGI (SF-539 CNS), entry "O=C(CCCN1CC=C(n2c(=O)[nH]c3ccccc32)CC1)c1cccs1" : > 100 µM

TGI on SF-539 CNS for "C/C(=C\c1ccn(-c2ccc(N)cc2)n1)[C@@H]1C[C@@H]2O[C@]2(C)CCC[C@H](C)[C@H](O)[C@@H](C)C(=O)C(C)(C)[C@@H](O)CC(=O)O1" is 0.357 µM

Here "CCOC(=O)/C(=C\NC(C)(C)C)c1nc2ccccc2o1" was tested on SF-539 CNS, and its TGI came to > 100 µM

Known value: SF-539 CNS TGI of the compound "CNC(=O)CN(CC(N)=O)C(=O)NC" equals > 100 µM

"COc1cnc2c(c1)C(=O)c1c-2n(CCCN2CCN(C)CC2)c(=O)c2cc(Cl)ccc12" tested on SF-539 CNS gave TGI: 5.31 µM
